test_name: Compound stability in human liver microsomes
Assay type: in vitro ADME
test_settings: liver microsomes, pH 7.4; in vivo CLint extrapolated from human liver microsome incubation
measured_endpoint: CLint scaled at 5 μM (mL/min/kg)

* Cc1nnc(-c2c(N)ncnc2N[C@@H](C)c2nc3cccc(Cl)c3c(=O)n2C2CC2)o1 | 26.3
* CC[C@H](Nc1ncnc(N)c1-c1noc(C)n1)c1nc2cccc(-c3cnn(C)c3)c2c(=O)n1C1CC1 | 35.3
* C[C@H](Nc1ncnc(N)c1-c1nnn(C)n1)c1nc2cccc(-c3cnn(C)c3)c2c(=O)n1-c1ccccc1 | 6.46
* Cc1nc(-c2c(N)ncnc2N[C@@H](C)c2nc3cccc(-c4cnn(C)c4)c3c(=O)n2-c2ccccc2)no1 | 21.3
* CC[C@H](Nc1ncnc(N)c1-c1nnn(C)n1)c1nc2cccc(-c3cnn(C)c3)c2c(=O)n1C1CC1 | 28.9
* Cc1nnc(-c2c(N)ncnc2N[C@@H](C)c2nc3cccc(-c4cnn(C)c4)c3c(=O)n2C2CC2)o1 | 18.3
* Cc1noc(-c2c(N)ncnc2N[C@@H](C)c2nc3cccc(-c4cnn(C)c4)c3c(=O)n2C2CC2)n1 | 26.2

----------
test_name: Compound stability in rat liver microsomes
Type: in vitro ADME
test_settings: rat liver microsomes 0.5 mg protein/mL, compound 5 μM, NADPH 1.0 mM, pH 7.4, 37° C.; read-out: Rat T1/2
Here, each record is paired with measured half-life at 5 μM data.
measured_endpoint: half-life at 5 μM (h)

- CC[C@H](Nc1ncnc(N)c1-c1nnn(C)n1)c1nc2cccc(-c3cnn(C)c3)c2c(=O)n1C1CC1: 1.08
- Cc1nc(-c2c(N)ncnc2N[C@@H](C)c2nc3cccc(-c4cnn(C)c4)c3c(=O)n2C2CC2)no1: 1.1
- Cc1nnc(-c2c(N)ncnc2N[C@@H](C)c2nc3cccc(-c4cnn(C)c4)c3c(=O)n2C2CC2)o1: 4.08
- Cc1noc(-c2c(N)ncnc2N[C@@H](C)c2nc3cccc(-c4cnn(C)c4)c3c(=O)n2-c2ccccc2)n1: 2.36
- Cc1nnc(-c2c(N)ncnc2N[C@@H](C)c2nc3cccc(-c4cnn(C)c4)c3c(=O)n2-c2ccccc2)o1: 4.14
- Cc1noc(-c2c(N)ncnc2N[C@@H](C)c2nc3cccc(-c4cnn(C)c4)c3c(=O)n2C2CC2)n1: 2.73

----------
Quick reference for half-life among some compounds
test_name: Pharmacokinetics after intravenous and oral administration in rats
Assay type: in vivo
test_settings: rat, plasma, iv, 1 mg/kg
Procedure: The LC/MS/MS system used in the analysis consists of an Agilent 1200 Series vacuum degasser, binary pump, well-plate autosampler, thermostatted column compartment, the Agilent G6430 Triple Quadrupole Mass Spectrometer with an electrosprayionization (ESI) source. Quantitative analysis was carried out using MRM mode. The parameters for MRM transitions are in the Table A. […] The compounds disclosed herein are assessed in pharmacokinetic studies in mice, rats, dogs or monkeys. […]
measured_endpoint: half-life (h)

* C[C@H](Nc1ncnc(N)c1-c1nnn(C)n1)c1nc2cccc(-c3cnn(C)c3)c2c(=O)n1-c1ccccc1 | 1.45
* Cc1noc(-c2c(N)ncnc2N[C@@H](C)c2nc3cccc(-c4cnn(C)c4)c3c(=O)n2C2CC2)n1 | 0.98
* CC[C@H](Nc1ncnc(N)c1-c1nc(C)no1)c1nc2cccc(-c3cnn(C)c3)c2c(=O)n1-c1ccccc1 | 1.56
* CC[C@H](Nc1ncnc(N)c1-c1noc(C)n1)c1nc2cccc(-c3cnn(C)c3)c2c(=O)n1C1CC1 | 1.36
* CC[C@H](Nc1ncnc(N)c1-c1nnc(C)o1)c1nc2cccc(-c3cnn(C)c3)c2c(=O)n1-c1ccccc1 | 0.85
* CC[C@H](Nc1ncnc(N)c1-c1nc(C)no1)c1nc2cccc(-c3cnn(C)c3)c2c(=O)n1C1CC1 | 1.07
* Cc1nc(-c2c(N)ncnc2N[C@@H](C)c2nc3cccc(-c4cnn(C)c4)c3c(=O)n2-c2ccccc2)no1 | 1.76
* CC[C@H](Nc1ncnc(N)c1-c1nnn(C)n1)c1nc2cccc(-c3cnn(C)c3)c2c(=O)n1C1CC1 | 1.27
* CC[C@H](Nc1ncnc(N)c1-c1nnc(C)o1)c1nc2cccc(-c3cnn(C)c3)c2c(=O)n1C1CC1 | 0.98
* Cc1nnc(-c2c(N)ncnc2N[C@@H](C)c2nc3cccc(Cl)c3c(=O)n2C2CC2)o1 | 0.85
* Cc1noc(-c2c(N)ncnc2N[C@@H](C)c2nc3cccc(-c4cnn(C)c4)c3c(=O)n2-c2ccccc2)n1 | 1.8
* C[C@H](Nc1ncnc(N)c1-c1nnn(C)n1)c1nc2cccc(-c3cnn(C)c3)c2c(=O)n1C1CC1 | 1.41
* Cc1nnc(-c2c(N)ncnc2N[C@@H](C)c2nc3cccc(-c4cnn(C)c4)c3c(=O)n2-c2ccccc2)o1 | 1.25
* Cc1nnc(-c2c(N)ncnc2N[C@@H](C)c2nc3cccc(-c4cnn(C)c4)c3c(=O)n2C2CC2)o1 | 1.14
